- System: Botrytis cinerea
- assay-overview: Control test of Botrytis rot (gray mold) of cucumber
- Format: in vivo
- conditions-used: Table 2, 31.3 ppm, curative
- Experimental: (1) Seedlings of cucumber (Cultivar: Matsukaze) were planted in a pot of 9 cm in diameter. The first leaf was sprayed with 3 ml each of solutions containing the test compound at the concentration of 125 or 31.3 ppm and the plant was dried by the air. After inoculation of the spores of Botrytis cinerea, the plants were kept at 20°±2° C. and 90-100% humidity ((i) protective spraying). […] Percent disease control was calculated by the ratio of diameter of diseased area in treated and untreated plants. […]
experimental-readout: Percent Disease Control, Curative Spraying

>  <compound>
O[C@@]1(c2ccc(Cl)cc2)CCCCC[C@H]1n1cncn1 (relative stereo)

>  <result>
86%

$$$$
>  <compound>
O[C@@]1(c2ccc(F)cc2)CCCCC[C@H]1n1cncn1 (relative stereo)

>  <result>
86%

$$$$
>  <compound>
O[C@@]1(c2ccc(Cl)cc2)CCCC[C@H]1n1cncn1 (relative stereo)

>  <result>
46%

$$$$
>  <compound>
CC(C)NC(=O)N1CC(=O)N(c2cc(Cl)cc(Cl)c2)C1=O [Iprodione, reference compound]

>  <result>
64%

$$$$
>  <compound>
O[C@@]1(c2ccc(F)cc2)CCCC[C@H]1n1cncn1 (relative stereo)

>  <result>
48%

$$$$

* * *

- Test system: Sphaerotheca fuliginea
- assay-overview: Control test to powdery mildew of cucumber (foliar and soil treatment)
- Format: in vivo
- conditions-used: Table 9, 7.8 ppm, index 0-10
experimental-readout: Powdery mildew, Soil Treatment, Protective Effect

>  <molecule>
O[C@]1(c2ccc(Cl)cc2)CCCC[C@H]1n1cncn1 (relative stereo) [Trans-isomer of Compound 22, reference compound]

>  <readout-number>
0

$$$$
>  <molecule>
O[C@@]1(c2ccc(Cl)cc2)CCCC[C@H]1n1cncn1 (relative stereo)

>  <readout-number>
10

$$$$
>  <molecule>
O[C@@]1(c2ccc(F)cc2)CCCC[C@H]1n1cncn1 (relative stereo)

>  <readout-number>
10

$$$$
>  <molecule>
O[C@]1(c2ccc(F)cc2)CCCC[C@H]1n1cncn1 (relative stereo) [Trans-isomer of Compound 28, reference compound]

>  <readout-number>
0

$$$$

* * *

- Test system: Botrytis cinerea
- assay-overview: Control test of Botrytis rot (gray mold) of cucumber
- Assay type: in vivo
- conditions-used: Table 9, 7.8 ppm, protective
experimental-readout: Gray Mold, Percent Disease Control, Protective Spraying (%)

>  <molecule>
O[C@@]1(c2ccc(Cl)cc2)CCCC[C@H]1n1cncn1 (relative stereo)

>  <readout-number>
35

$$$$
>  <molecule>
O[C@@]1(c2ccc(F)cc2)CCCC[C@H]1n1cncn1 (relative stereo)

>  <readout-number>
17

$$$$
>  <molecule>
O[C@]1(c2ccc(F)cc2)CCCC[C@H]1n1cncn1 (relative stereo) [Trans-isomer of Compound 28, reference compound]

>  <readout-number>
3

$$$$
>  <molecule>
O[C@]1(c2ccc(Cl)cc2)CCCC[C@H]1n1cncn1 (relative stereo) [Trans-isomer of Compound 22, reference compound]

>  <readout-number>
0

$$$$

* * *

- Test system: Sclerotinia sclerotiorum
- assay-overview: Control test to Sclerotinia rot of cucumber
- Type: in vivo
- conditions-used: 31.3 ppm, curative
Could you label it T if measured Percent Disease Control, Curative Spraying is 90% or higher, and F otherwise?

>  <compound>
O[C@@]1(c2ccc(F)cc2)CCCCC[C@H]1n1cncn1 (relative stereo)

>  <assigned-class>
T

$$$$
>  <compound>
CC(C)NC(=O)N1CC(=O)N(c2cc(Cl)cc(Cl)c2)C1=O [Iprodione, reference compound]

>  <assigned-class>
F

$$$$
>  <compound>
O[C@@]1(c2ccccc2Cl)CCCC[C@H]1n1cncn1 (relative stereo)

>  <assigned-class>
F

$$$$
>  <compound>
O[C@@]1(c2ccc(Cl)cc2)CCCCC[C@H]1n1cncn1 (relative stereo)

>  <assigned-class>
T

$$$$
>  <compound>
O[C@@]1(c2ccc(F)cc2)CCCC[C@H]1n1cncn1 (relative stereo)

>  <assigned-class>
F

$$$$
>  <compound>
O[C@@]1(c2ccc(Cl)cc2)CCCC[C@H]1n1cncn1 (relative stereo)

>  <assigned-class>
T

$$$$
